The reported numbers originate from the NIST ThermoML archive (doi:10.1021/je300826t).

Conditions: 298.15 K; 101.33 kPa; Liquid; Vibrating tube method
Numbers after ± are expanded uncertainties.
Metric Name: mass density
Number plus unit, in that order.

Q) Bench note: what mass density did `CC1CCCCC1` show?
A) 765.02 ± 0.24 kg/m3

Q) Bench note: what mass density did `CCc1ccccc1` show?
A) 862.51 ± 0.11 kg/m3

Q) Bench note: what mass density did CCCCn1cc[n+](C)c1.COS(=O)(=O)[O-] [1-butyl-3-methylimidazolium methyl sulfate] show?
A) 1212.59 ± 0.41 kg/m3

Q) Bench note: what mass density did `C1CCCCC1` show?
A) 773.8 ± 0.13 kg/m3

Q) Bench note: what mass density did `c1ccccc1` show?
A) 873.57 ± 0.11 kg/m3

Q) Bench note: what mass density did `C1CCCCCCC1` show?
A) 831.47 ± 0.24 kg/m3

---

Experiment: refractive index (Na D-line) (dimensionless)
Conditions: 298.15 K; 101.33 kPa; Liquid; Standard Abbe refractometry
Metric Name: refractive index
The answer should be written as a number, with no unit following it.

Q) Bench note: what refractive index did CCCCn1cc[n+](C)c1.COS(=O)(=O)[O-] [1-butyl-3-methylimidazolium methyl sulfate] show?
A) 1.47792

Q) Bench note: what refractive index did `c1ccccc1` show?
A) 1.49774

Q) Bench note: what refractive index did `C1CCCCCCC1` show?
A) 1.45598

Q) Bench note: what refractive index did `CC1CCCCC1` show?
A) 1.42062

Q) Bench note: what refractive index did `C1CCCCC1` show?
A) 1.4236

Q) Bench note: what refractive index did `CCc1ccccc1` show?
A) 1.49304
